tested on: NCI-H226 lung; experiment: NCI tumour cell line growth inhibition, 48 h
Assay metric: TGI

COc1cc(N2CCC(N3CCN(C)CC3)CC2)ccc1Nc1ncnc(Nc2ccccc2S(=O)(=O)C(C)C)n1	17.5 µM
Cc1cc(C)c(S(=O)(=O)N2CCCN(S(=O)(=O)c3c(C)cc(C)cc3C)OCCCO2)c(C)c1	> 100 µM
Cc1cccc(C)c1CO	> 100 µM
CCOC(=O)Cc1ccc2c(c1O)C(=O)c1c(ccc(CC(=O)OCC)c1O)C2=O	> 100 µM

###

test system: OVCAR-8 ovarian; experiment: NCI tumour cell line growth inhibition, 48 h; in the data active means GI50 below about 0.43 µM; inactive means the rest
Classes used: active, inactive

COC(=O)c1cc2c3ccccc3n3c(=O)c4cc5ccccc5nc4c(n1)c23	inactive
c1cc(N2CCCN(c3ccc(C4=NCCCN4)cc3)CC2)ccc1C1=NCCCN1	inactive
Nc1c2c(c(O)c3c1=C(CO)C=N3)=NCCS2	active
CC(=O)[CH-]C(=O)c1ccccc1.CC(=O)[CH-]C(=O)c1ccccc1.CC(C)CCCC(C)[C@H]1CCC2[C@@H]3CC=C4C[C@@H]([O-])CC[C@]4(C)C3CC[C@@]21C.CC(C)CCCC(C)[C@H]1CCC2[C@@H]3CC=C4C[C@@H]([O-])CC[C@]4(C)C3CC[C@@]21C.[Ti+4] (stereo partly drawn)	inactive
COc1cc2ncn(-c3cc(O[C@@H](C)c4ccccc4Cl)c(C(N)=O)s3)c2cc1OC	inactive
O=S(=O)(NCCCNc1nccc(-c2c(-c3ccc(F)c(O)c3)nc3sccn23)n1)c1ccc(F)cc1	inactive
C/C(=N\Nc1cc(C)c2ccccc2n1)c1ccccn1	active
Cc1cc(-c2nc3sccn3c2/C=N/N=C(N)N)c(C)s1	inactive

###

Below: a set of entries, each annotated with reported TGI.
system: PC-3 prostate; experiment: NCI tumour cell line growth inhibition, 48 h
Assay metric: TGI (µM)

COC(=O)c1ccc(NC(=O)O/N=C(\Cl)C(C)C)cc1	31.1
COC(=O)C1=CSC2(S1)C(C(=O)OC)=CSc1c2ssc1=O (stereo not drawn)	6.03
COc1ccc(-c2cc(-c3ccc(Cl)cc3)nc(SCCCC(=O)NO)n2)cc1	3.61
COc1cccc(C2c3cc4c(cc3OC(N3CCOCC3)C2C)OCO4)c1OC (stereo not drawn)	40.6

###

tested on: HOP-62 NSCLC; experiment: NCI tumour cell line growth inhibition, 48 h
*1 amine or outer side, *2 acyl side, *3 side chain or, on linkers, in order; H or OH if unused. Where a SMILES comes first, the peptide text is derived from it. Bridges are numbered along the chain shown (N, C = ends). Roman numbers before positions name the chains, in order. [ ]: non-standard residue; d: D form. Actinocin(9to1) = Cc1c2oc3c(C)ccc(C(=O)[*:1])c3nc-2c(C(=O)[*:2])c(N)c1=O; NMeT = CN[CH](C(=O)O)[CH](C)O; Sar = CNCC(=O)O
Below: a set of entries, each annotated with reported TGI.
Assay metric: TGI

CC(=O)NC1=C(NC(C)(C)C)C(=O)c2ccccc2C1=O	> 100 µM
CC(=C/C=C/C=C(C)\C=C\C=C(\C)C(=O)O)/C=C/C=C(/C)C(=O)O	> 100 µM
Cn1nc(-c2ccccc2)c(C(=O)/C=C/c2ccc(Cl)cc2)c(N2CCCCC2)c1=O	5.68 µM
CC(=O)CC(N)=O	> 100 µM
Cc1c2oc3c(C)ccc(C(=O)NC4C(=O)NC(C(C)C)C(=O)N5CCCC5C(=O)N(C)CC(=O)N(C)C(C(C)O)C(=O)OC4C)c3nc-2c(C(=O)NC2C(=O)NC(C(C)C)C(=O)N3CCCC3C(=O)N(C)CC(=O)N(C)C(C(C)O)C(=O)OC2C)c(N)c1=O (configuration not stated) (I: TVP[Sar][NMeT] / II: TVP[Sar][NMeT]; ester I:1-I:C, II:1-II:C; linker I:N-II:N via Actinocin(9to1); configuration not given here)	> 1 µM
COc1cc(S(=O)(=O)Nc2nc(-c3ccc(N4C(=O)/C(=C/C=C/c5ccccc5)N=C4c4ccccc4)cc3)cs2)ccc1Cl	> 100 µM
O=S(=O)(c1ccccc1)C(c1ccc2ccccc2n1)S(=O)(=O)c1ccccc1	> 100 µM
